The measurements presented in this section are drawn from ChEMBL document CHEMBL1140446.

In this section, each of the compounds is paired with its reported pIC50.
- target.or.system: Substance-P receptor (Homo sapiens, UniProt P25103)
- Sequence (P25103 whole entry): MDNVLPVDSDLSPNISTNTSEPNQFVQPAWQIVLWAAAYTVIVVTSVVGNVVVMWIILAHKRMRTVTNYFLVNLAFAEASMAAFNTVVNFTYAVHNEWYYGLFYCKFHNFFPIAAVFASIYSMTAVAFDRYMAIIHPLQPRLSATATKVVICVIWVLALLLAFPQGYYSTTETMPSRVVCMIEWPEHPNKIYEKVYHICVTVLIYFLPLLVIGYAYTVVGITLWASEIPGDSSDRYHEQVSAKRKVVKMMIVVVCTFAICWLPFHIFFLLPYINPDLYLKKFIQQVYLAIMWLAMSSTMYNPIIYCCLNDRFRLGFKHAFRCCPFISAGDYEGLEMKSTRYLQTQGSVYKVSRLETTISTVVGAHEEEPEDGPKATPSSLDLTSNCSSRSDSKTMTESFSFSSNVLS
- assay.explanation: Inhibitory concentration against tachykinin receptor 1
Worth noting: pIC50 values are minus log10 of concentrations stated in mol/L.

COc1cc(C(=O)N2CC[C@@](CCN3CCC(C(N)=O)(c4ccccc4)CC3)(c3ccc(Cl)c(Cl)c3)C2)cc(OC)c1OC ... 8.51

Kindly consider the entry below.
[ask] Using the record for `NC(=O)C1(c2ccccc2)CCN(CC[C@@]2(c3ccc(Cl)c(Cl)c3)CCN(C(=O)c3ccccc3)C2)CC1` , report its pIC50.
[reply] 6.79

###

# IC50 measurements, system: Thromboxane-A synthase (Homo sapiens, UniProt P24557)
# Sequence (P24557 whole entry): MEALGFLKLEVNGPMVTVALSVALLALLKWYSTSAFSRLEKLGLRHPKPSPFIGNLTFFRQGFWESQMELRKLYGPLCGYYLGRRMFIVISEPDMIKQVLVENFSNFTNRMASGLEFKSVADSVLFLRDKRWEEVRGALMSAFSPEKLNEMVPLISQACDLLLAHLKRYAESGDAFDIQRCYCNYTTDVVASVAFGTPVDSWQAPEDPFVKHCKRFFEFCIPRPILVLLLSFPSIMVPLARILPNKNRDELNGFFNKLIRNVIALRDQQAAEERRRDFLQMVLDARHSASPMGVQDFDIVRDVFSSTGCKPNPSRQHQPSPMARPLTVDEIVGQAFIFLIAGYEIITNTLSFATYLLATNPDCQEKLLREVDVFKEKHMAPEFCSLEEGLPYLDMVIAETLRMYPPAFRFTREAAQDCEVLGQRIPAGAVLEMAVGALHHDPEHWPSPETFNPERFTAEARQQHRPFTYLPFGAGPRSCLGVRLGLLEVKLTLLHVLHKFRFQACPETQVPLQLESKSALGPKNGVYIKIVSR
Numbers only here, please. The scale is nM.

Cc1c(Cc2ccncc2)n(CCNS(=O)(=O)c2ccc(F)cc2)c2ccc(CCC(=O)O)cc12 ... 78

[ask] Give IC50 (Thromboxane-A synthase (Homo sapiens, UniProt P24557)) of the following compound: `CNc1nc2c(Cc3cccnc3)c(C)c(O)c(C)c2s1`
[reply] 90

###

- target.or.system: Thromboxane A2 receptor (Homo sapiens)
- Sequence (P21731 whole entry): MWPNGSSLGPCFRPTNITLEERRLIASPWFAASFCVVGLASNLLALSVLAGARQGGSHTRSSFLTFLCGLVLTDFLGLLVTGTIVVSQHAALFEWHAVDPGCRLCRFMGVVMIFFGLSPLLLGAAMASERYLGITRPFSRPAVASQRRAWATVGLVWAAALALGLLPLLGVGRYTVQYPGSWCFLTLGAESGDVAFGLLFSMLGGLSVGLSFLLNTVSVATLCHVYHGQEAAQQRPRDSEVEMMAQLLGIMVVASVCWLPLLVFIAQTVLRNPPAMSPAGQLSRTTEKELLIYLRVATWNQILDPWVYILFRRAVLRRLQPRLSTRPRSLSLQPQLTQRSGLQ
parameter: pKi
Worth noting: pKi values are minus log10 of concentrations stated in mol/L.

O=C(O)Cc1ccc2c(c1)C(=CCN1CCC(Cc3ccccc3)CC1)c1ccccc1CO2 ... 6.13

Kindly consider the entry below.
[ask] Give pKi (Thromboxane A2 receptor (Homo sapiens)) of the following compound: `O=C(O)c1ccc2c(c1)/C(=C/Cn1cnc3ccccc31)c1ccccc1CO2`
[reply] 7.82

###

- target.or.system: Angiotensin-converting enzyme (Homo sapiens)
- Sequence (P12821 whole entry): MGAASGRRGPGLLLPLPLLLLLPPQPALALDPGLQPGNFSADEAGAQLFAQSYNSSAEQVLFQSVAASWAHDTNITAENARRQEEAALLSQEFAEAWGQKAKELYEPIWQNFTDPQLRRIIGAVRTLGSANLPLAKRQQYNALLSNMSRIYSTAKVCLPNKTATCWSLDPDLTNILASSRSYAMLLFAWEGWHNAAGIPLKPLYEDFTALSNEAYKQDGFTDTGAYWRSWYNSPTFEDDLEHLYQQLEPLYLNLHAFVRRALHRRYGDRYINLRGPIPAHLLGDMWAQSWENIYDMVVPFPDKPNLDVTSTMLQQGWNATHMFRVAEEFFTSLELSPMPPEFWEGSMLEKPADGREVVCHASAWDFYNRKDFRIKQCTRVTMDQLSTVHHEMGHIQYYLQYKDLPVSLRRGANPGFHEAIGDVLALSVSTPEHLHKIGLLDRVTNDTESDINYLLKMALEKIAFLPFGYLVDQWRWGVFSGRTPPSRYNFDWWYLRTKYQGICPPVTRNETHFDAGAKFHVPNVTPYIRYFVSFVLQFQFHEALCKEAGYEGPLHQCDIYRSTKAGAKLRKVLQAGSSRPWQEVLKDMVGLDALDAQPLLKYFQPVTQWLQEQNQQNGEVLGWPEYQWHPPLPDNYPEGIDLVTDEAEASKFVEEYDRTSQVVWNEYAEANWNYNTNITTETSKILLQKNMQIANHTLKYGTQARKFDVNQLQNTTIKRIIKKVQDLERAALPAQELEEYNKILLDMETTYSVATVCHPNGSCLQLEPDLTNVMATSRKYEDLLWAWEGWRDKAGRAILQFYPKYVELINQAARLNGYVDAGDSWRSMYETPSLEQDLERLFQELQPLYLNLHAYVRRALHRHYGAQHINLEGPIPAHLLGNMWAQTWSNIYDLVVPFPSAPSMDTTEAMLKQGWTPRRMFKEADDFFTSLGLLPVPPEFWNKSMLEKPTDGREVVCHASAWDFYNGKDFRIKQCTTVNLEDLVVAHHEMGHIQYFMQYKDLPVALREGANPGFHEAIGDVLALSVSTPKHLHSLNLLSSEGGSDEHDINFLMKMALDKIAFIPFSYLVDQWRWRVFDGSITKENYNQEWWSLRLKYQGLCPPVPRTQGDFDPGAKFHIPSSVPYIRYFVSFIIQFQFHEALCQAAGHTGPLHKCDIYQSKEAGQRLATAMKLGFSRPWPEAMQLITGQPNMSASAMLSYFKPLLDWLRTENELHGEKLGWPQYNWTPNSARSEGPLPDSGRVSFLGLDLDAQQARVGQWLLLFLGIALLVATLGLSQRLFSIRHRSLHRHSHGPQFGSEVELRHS
parameter: Ki (nM)
Numbers only here, please. The scale is nM.

[ask] Using the record for `COc1ccc2c(c1)CC[C@H]2[C@@H](CS)C(=O)N[C@@H](Cc1c[nH]c2ccccc12)C(=O)O` , report its Ki.
[reply] 1.3

###

- target.or.system: Endothelin receptor type B (Homo sapiens)
- Sequence (P24530 whole entry): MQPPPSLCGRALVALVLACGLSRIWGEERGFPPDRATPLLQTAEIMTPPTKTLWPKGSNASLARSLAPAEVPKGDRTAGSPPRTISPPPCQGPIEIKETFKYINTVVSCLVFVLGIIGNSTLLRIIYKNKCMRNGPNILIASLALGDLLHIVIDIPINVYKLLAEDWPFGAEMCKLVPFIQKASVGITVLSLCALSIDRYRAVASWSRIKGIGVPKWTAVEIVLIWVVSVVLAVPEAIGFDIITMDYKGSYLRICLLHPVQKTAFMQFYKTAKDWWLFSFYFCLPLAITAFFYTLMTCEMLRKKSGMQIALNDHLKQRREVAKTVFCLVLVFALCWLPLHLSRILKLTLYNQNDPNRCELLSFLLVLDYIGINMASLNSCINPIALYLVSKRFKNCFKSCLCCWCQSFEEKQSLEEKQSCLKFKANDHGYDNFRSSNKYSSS
parameter: IC50 (nM)
Numbers only here, please. The scale is nM.

[ask] Using the record for CCCc1cc(Cn2c(CC)nc3c(C)cc(C)nc32)ccc1OC(C(=O)NS(=O)(=O)c1ccc(C(C)C)cc1)c1ccc2c(c1)OCC2 (stereo unspecified) , report its IC50.
[reply] 60

###

- target.or.system: D(2) dopamine receptor (Homo sapiens)
- Sequence (P14416 whole entry): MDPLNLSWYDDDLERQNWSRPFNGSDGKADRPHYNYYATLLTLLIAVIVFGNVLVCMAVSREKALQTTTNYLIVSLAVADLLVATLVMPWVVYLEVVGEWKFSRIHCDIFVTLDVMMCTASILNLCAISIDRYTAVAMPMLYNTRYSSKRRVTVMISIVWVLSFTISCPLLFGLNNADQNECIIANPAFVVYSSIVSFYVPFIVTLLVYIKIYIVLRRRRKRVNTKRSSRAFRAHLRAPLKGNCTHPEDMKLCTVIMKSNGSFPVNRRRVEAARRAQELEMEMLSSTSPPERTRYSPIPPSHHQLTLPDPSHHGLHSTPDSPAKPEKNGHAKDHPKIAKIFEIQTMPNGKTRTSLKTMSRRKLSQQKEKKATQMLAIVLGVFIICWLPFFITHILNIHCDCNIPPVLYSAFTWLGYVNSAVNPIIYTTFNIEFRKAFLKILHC
parameter: pIC50
Worth noting: pIC50 values are minus log10 of concentrations stated in mol/L.

[ask] Give pIC50 (D(2) dopamine receptor (Homo sapiens)) of the following molecule: `O=C1Cc2cc(CCN3CCN(c4cccc5ccccc45)CC3)ccc2N1`
[reply] 7.36

###

- target.or.system: Tyrosine-protein kinase ABL1 (Homo sapiens)
- assay.explanation: Inhibitory concentration against v-Abl tyrosine kinase
parameter: IC50 (nM)
Numbers only here, please. The scale is nM.

[ask] Using the record for `O=C(Nc1cccc(Nc2nccc(-c3cccnc3)n2)c1)c1ccccc1` , report its IC50.
[reply] 400

###

- target.or.system: UniProtKB Q01959
parameter: IC50
Value and unit, in that order.

[ask] Give IC50 (UniProtKB Q01959) of the following compound: `CN(C)C[C@@H]1C2CCC(CC2)[C@@H]1c1cccc(Cl)c1`
[reply] 28 nM

###

# IC50 measurements, system: Neprilysin (Homo sapiens, UniProt P08473)
# Sequence (P08473 whole entry): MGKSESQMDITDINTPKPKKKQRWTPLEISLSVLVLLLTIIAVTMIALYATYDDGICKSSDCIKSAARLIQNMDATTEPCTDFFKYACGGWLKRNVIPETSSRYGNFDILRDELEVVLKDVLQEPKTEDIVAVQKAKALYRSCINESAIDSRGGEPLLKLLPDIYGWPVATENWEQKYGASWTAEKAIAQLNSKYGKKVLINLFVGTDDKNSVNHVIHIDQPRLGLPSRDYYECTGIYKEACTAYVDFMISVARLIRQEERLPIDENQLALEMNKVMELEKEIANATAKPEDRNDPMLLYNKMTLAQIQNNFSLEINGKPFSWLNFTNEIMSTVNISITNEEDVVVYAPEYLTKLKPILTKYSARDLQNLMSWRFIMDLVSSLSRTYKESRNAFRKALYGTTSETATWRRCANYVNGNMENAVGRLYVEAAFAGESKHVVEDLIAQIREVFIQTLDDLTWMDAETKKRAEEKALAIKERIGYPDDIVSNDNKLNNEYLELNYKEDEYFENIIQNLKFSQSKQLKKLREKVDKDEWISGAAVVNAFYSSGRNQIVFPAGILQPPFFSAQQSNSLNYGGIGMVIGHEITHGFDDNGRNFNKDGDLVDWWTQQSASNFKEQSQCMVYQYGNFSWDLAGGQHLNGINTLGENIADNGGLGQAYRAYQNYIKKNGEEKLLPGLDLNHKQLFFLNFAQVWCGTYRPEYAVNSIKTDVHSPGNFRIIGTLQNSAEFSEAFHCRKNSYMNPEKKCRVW
Numbers only here, please. The scale is nM.

O=C(O)CCNC(=O)C(CS)Cc1ccccc1 (configuration not stated) ... 9.4

Kindly consider the entry below.
[ask] Using the record for O=C(N[C@H]1Cc2ccccc2C2CCC[C@H](C(=O)O)N2C1=O)[C@H](S)Cc1ccccc1 (some centres not stated) , report its IC50.
[reply] 0.08

###

- target.or.system: 5-hydroxytryptamine receptor 2A (Rattus norvegicus, UniProt P14842)
parameter: pKi
Worth noting: pKi values are minus log10 of concentrations stated in mol/L.

[ask] Give pKi (5-hydroxytryptamine receptor 2A (Rattus norvegicus, UniProt P14842)) of the following compound: `COc1cccc2c1CCC[C@H]2CN(C)CCc1ccc2ccoc2c1`
[reply] 6.84

###

In this section, each of the compounds is paired with its reported IC50.
- target.or.system: Polyunsaturated fatty acid 5-lipoxygenase (Homo sapiens)
- Sequence (P09917 whole entry): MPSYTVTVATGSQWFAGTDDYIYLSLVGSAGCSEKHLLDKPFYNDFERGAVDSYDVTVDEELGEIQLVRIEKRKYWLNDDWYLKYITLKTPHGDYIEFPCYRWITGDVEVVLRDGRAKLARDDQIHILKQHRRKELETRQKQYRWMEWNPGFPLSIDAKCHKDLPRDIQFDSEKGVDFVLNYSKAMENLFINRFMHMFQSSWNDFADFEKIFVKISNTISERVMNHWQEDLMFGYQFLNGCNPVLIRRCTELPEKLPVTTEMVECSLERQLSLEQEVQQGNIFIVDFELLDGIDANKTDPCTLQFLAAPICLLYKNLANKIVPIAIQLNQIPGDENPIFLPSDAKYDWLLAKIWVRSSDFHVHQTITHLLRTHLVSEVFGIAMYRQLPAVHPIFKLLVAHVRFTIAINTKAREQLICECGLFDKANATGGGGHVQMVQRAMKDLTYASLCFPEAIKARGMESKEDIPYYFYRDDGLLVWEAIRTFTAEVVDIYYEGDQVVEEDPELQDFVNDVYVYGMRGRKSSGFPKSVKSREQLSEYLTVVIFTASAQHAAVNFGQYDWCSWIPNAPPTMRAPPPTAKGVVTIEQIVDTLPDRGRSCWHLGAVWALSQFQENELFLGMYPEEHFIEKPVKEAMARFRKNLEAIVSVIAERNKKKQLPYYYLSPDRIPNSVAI
- assay.explanation: Inhibitory concentration against arachidonate 5-lipoxygenase
Numbers only here, please. The scale is nM.

CC(C)(C)c1cc(C(=O)c2cccs2)cc(C(C)(C)C)c1O ... 20000

[ask] Using the record for `CC(C)(C)c1cc(C=C2SC(N)=NC2=O)cc(C(C)(C)C)c1O` , report its IC50.
[reply] 770

[ask] Using the record for COc1ccc(-n2nc(C#CC(C)N(O)C(C)=O)cc2-c2ccc(Cl)cc2)cc1 (stereo not drawn) , report its IC50.
[reply] 110

###

- target.or.system: Prostaglandin G/H synthase 1 (Homo sapiens)
parameter: pIC50
Worth noting: pIC50 values are minus log10 of concentrations stated in mol/L.

[ask] Give pIC50 (Prostaglandin G/H synthase 1 (Homo sapiens)) of the following molecule: `CC1(C)Cc2c(-c3ccccc3)c(-c3ccc(Cl)cc3)c(CC(=O)O)n2C1`
[reply] 6.80

###

- target.or.system: Endothelin-1 receptor (Homo sapiens, UniProt P25101)
- Sequence (P25101 whole entry): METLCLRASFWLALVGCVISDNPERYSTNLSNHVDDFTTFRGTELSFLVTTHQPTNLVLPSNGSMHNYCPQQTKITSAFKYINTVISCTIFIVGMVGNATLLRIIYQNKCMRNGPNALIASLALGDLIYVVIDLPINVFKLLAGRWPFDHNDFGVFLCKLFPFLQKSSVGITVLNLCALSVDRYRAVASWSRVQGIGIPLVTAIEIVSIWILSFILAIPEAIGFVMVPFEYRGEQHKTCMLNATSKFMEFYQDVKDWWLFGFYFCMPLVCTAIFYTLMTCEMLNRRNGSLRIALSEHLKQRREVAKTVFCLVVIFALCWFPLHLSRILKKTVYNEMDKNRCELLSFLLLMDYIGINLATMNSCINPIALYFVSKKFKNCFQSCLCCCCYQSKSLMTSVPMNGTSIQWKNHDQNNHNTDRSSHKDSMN
parameter: IC50 (nM)
Numbers only here, please. The scale is nM.

[ask] Using the record for CCCc1cc(Cn2c(CC)nc3c(C)cc(C)nc32)ccc1OC(C(=O)NS(=O)(=O)c1ccc(C(C)C)cc1)c1ccc2c(c1)OCC2 (stereo unspecified) , report its IC50.
[reply] 24

###

In this section, each of the compounds is paired with its reported pIC50.
- target.or.system: Peroxisome proliferator-activated receptor alpha (Homo sapiens, UniProt Q07869)
- Sequence (Q07869 whole entry): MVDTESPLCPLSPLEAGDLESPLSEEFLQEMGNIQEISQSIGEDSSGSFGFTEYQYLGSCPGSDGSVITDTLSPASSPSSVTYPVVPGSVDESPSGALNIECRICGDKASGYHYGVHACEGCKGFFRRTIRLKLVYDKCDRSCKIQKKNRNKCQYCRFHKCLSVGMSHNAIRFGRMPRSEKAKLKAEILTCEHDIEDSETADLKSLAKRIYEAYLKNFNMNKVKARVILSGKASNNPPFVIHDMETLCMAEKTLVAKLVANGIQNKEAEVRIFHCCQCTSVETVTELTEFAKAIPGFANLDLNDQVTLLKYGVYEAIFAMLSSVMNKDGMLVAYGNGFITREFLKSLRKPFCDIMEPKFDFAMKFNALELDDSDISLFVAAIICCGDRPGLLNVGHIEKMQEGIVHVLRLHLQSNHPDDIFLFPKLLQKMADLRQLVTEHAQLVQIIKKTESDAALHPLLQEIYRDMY
Worth noting: pIC50 values are minus log10 of concentrations stated in mol/L.

CC(Cc1ccccc1)(Oc1ccc(Cl)cc1)C(=O)O (configuration not stated) ... 5.36

[ask] Using the record for `Cc1oc(-c2ccccc2)nc1CCOc1ccc(OC(C)(C)C(=O)O)cc1` , report its pIC50.
[reply] 5.76

###

- target.or.system: Type-2 angiotensin II receptor (Homo sapiens, UniProt P50052)
- Sequence (P50052 whole entry): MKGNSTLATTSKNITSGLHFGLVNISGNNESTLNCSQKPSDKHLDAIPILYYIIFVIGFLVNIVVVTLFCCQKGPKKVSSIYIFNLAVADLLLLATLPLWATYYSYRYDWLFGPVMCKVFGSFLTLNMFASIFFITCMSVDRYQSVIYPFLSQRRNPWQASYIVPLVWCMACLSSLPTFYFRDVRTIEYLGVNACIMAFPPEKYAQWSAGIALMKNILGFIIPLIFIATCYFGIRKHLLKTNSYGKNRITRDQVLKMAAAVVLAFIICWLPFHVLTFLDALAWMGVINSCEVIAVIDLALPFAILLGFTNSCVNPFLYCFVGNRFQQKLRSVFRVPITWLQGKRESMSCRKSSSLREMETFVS
In this section, each of the compounds is paired with its reported pIC50.
Worth noting: pIC50 values are minus log10 of concentrations stated in mol/L.

Study these solved cases before continuing.
CCCCCN(C(=O)c1ccccc1)c1ccc2nc(CCC)n(Cc3ccc(-c4ccccc4-c4nn[nH]n4)cc3)c(=O)c2c1 ... 9.15
CCCCc1nc2ccc(NC(=O)N(C)C(C)C)cc2c(=O)n1Cc1ccc(-c2ccccc2-c2nnn[nH]2)cc1 ... 5.35

Kindly consider the entry below.
[ask] Using the record for CCCc1cc(Cn2c(CC)nc3c(C)cc(C)nc32)ccc1OC(C(=O)NS(=O)(=O)c1ccc(C(C)C)cc1)c1ccc2c(c1)OCC2 (stereo not drawn) , report its pIC50.
[reply] 7.49
